TARGET_UNDER_TEST: human GPR119 (Homo sapiens)
Sequence (Q8TDV5 1-335): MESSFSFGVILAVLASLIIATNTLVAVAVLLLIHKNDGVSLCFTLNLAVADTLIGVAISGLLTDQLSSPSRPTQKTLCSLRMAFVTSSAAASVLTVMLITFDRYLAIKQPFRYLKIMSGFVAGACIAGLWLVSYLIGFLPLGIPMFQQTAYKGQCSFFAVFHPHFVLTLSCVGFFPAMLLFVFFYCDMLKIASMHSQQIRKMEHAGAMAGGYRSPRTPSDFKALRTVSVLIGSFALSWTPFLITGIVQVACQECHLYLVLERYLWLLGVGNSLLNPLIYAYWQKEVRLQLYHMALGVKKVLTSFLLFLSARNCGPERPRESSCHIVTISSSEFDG
ASSAY_EXPLANATION: Measurement of GPR119 signaling using LANCE 384-well cAMP kit (LCMP assay)
CONDITION_PARAMETERS: HEK293 cells stably transfected with human GPR119
Experimental: Measurement of GPR119 Signaling Using LANCE 384-Well cAMP Kit (LCMP Assay) Human embryonic kidney (HEK) 293 cell lines stably transfected with human GPR119 were maintained in DMEM media containing FBS, penicillin-streptomycin, HEPES, and hygromycin. […] Fluorescence at 665 nm was measured using a PHERAstar instrument. Basal activity was determined using a DMSO control and maximum response was defined as cAMP stimulation produced by an internal agonist control. […]
TEST_READOUT: pEC50
The read-out pEC50 is expressed as -log10 of concentration in moles per litre.

Below: 3 compounds and their reported pEC50.
Input: Would you mind telling me what pEC50 value was observed for CS(=O)(=O)c1ccc(OCC[C@H]2C[C@@H]2C2CCN(c3ncc(Cl)cn3)CC2)nc1 ?
Output: 7.66

Input: Would you mind telling me what pEC50 value was observed for CCc1cnc(N2CCC([C@@H]3C[C@H]3CCOc3cc(F)c(CC(=O)N(C)C)c(F)c3)CC2)nc1 ?
Output: 9.15

Input: Would you mind telling me what pEC50 value was observed for CC1(OC(=O)N2CCC([C@H]3C[C@@H]3CCOc3ccc(CC(=O)N4CCC4)cc3F)CC2)CC1 ?
Output: 8.20

---
Input: Would you mind telling me what pEC50 value was observed for CCc1cnc(N2CCC([C@H]3C[C@@H]3COCc3ccc(S(C)(=O)=O)cc3F)CC2)nc1 ?
Output: 8.89

====

TARGET_UNDER_TEST: human GPR119 (Homo sapiens)
Construct: expressed in transfected cells; host or cells: HEK293
ASSAY_EXPLANATION: Measurement of GPR119 signaling using LANCE 384-well cAMP kit (LCMP assay)
Type: cell-based
CONDITION_PARAMETERS: HEK293 cells stably transfected with human GPR119
In plain terms, low EC50, meaning strictly below 6 nM, gives criterion met, and everything else gives criterion not met.

// below: answered molecules
Input: Dear reviewer, please state whether CC1(OC(=O)N2CCC([C@@H]3C[C@H]3CCOc3ccc(CC(=O)N4CCC4)cn3)CC2)CC1 has EC50 strictly beneath 6 nM.
Output: criterion not met

Input: Dear reviewer, please state whether CC1(OC(=O)N2CCC([C@H]3C[C@@H]3CCOc3ccc(-n4cnnn4)cc3F)CC2)CC1 has EC50 strictly beneath 6 nM.
Output: criterion not met

Input: Dear reviewer, please state whether COCc1cnc(N2CCC([C@H]3C[C@@H]3CCOc3ccc(CC(=O)N4CCC4)c(F)c3)CC2)nc1 has EC50 strictly beneath 6 nM.
Output: criterion met

Input: Dear reviewer, please state whether COCc1cnc(N2CCC([C@@H]3C[C@H]3CCOc3ccc(CC(=O)N4CCC4)c(F)c3)CC2)nc1 has EC50 strictly beneath 6 nM.
Output: criterion not met

Input: Dear reviewer, please state whether CC(C)c1noc(N2CCC([C@H]3C[C@@H]3CCOc3cc(F)c(CC(=O)N4CCC4)c(F)c3)CC2)n1 has EC50 strictly beneath 6 nM.
Output: criterion met

Input: Dear reviewer, please state whether COCc1cnc(N2CCC([C@H]3C[C@@H]3CCOc3cc(F)c(CC(=O)N4CCC4)c(F)c3)CC2)nc1 has EC50 strictly beneath 6 nM.
Output: criterion met

Input: Dear reviewer, please state whether CCc1cnc(N2CCC([C@H]3C[C@@H]3CCOc3ccc(CC(=O)N4CCC4)cn3)CC2)nc1 has EC50 strictly beneath 6 nM.
Output: criterion not met

Input: Dear reviewer, please state whether CC1(OC(=O)N2CCC([C@@H]3C[C@H]3CCOc3ccc(-n4cnnn4)cc3F)CC2)CC1 has EC50 strictly beneath 6 nM.
Output: criterion not met

Input: Dear reviewer, please state whether CC(C)c1noc(N2CCC([C@H]3C[C@@H]3CCOc3ccc(CC(=O)N(C)C)c(F)c3)CC2)n1 has EC50 strictly beneath 6 nM.
Output: criterion not met

Input: Dear reviewer, please state whether CCc1cnc(N2CCC([C@H]3C[C@@H]3CCOc3ccc(-n4cnnn4)c(F)c3)CC2)nc1 has EC50 strictly beneath 6 nM.
Output: criterion met

---
Input: Dear reviewer, please state whether CC(C)c1noc(N2CCC([C@H]3C[C@@H]3CCOc3ccc(-n4cnnn4)c(F)c3)CC2)n1 has EC50 strictly beneath 6 nM.
Output: criterion not met

Input: Dear reviewer, please state whether CCS(=O)(=O)c1ccc(OCC[C@@H]2C[C@H]2C2CCN(c3nc(C(C)C)no3)CC2)nc1 has EC50 strictly beneath 6 nM.
Output: criterion not met

Input: Dear reviewer, please state whether O=C(Cc1ccc(OCC[C@H]2C[C@@H]2C2CCN(c3ncc(Cl)cn3)CC2)cc1F)N1CCC1 has EC50 strictly beneath 6 nM.
Output: criterion met

Input: Dear reviewer, please state whether CCc1cnc(N2CCC([C@H]3C[C@@H]3CCOc3cc(F)cc(F)c3CC(=O)N(C)C)CC2)nc1 has EC50 strictly beneath 6 nM.
Output: criterion not met

Input: Dear reviewer, please state whether CN(C)C(=O)Cc1c(F)cc(OCC[C@H]2C[C@@H]2C2CCN(C(=O)OC3(C)CC3)CC2)cc1F has EC50 strictly beneath 6 nM.
Output: criterion met

Input: Dear reviewer, please state whether COCc1cnc(N2CCC([C@H]3C[C@@H]3CCOc3ccc(CC(=O)N4CCC4)cc3F)CC2)nc1 has EC50 strictly beneath 6 nM.
Output: criterion not met

Input: Dear reviewer, please state whether CN(C)C(=O)Cc1ccc(OCC[C@H]2C[C@@H]2C2CCN(C(=O)OC3(C)CC3)CC2)cc1F has EC50 strictly beneath 6 nM.
Output: criterion met

Input: Dear reviewer, please state whether CCc1cnc(N2CCC([C@H]3C[C@@H]3CCOc3cc(F)cc(F)c3CC(=O)N3CCC3)CC2)nc1 has EC50 strictly beneath 6 nM.
Output: criterion not met

Input: Dear reviewer, please state whether CCS(=O)(=O)c1ccc(COC[C@H]2C[C@@H]2C2CCN(c3ncc(COC)cn3)CC2)cc1 has EC50 strictly beneath 6 nM.
Output: criterion not met

Input: Dear reviewer, please state whether CC1(OC(=O)N2CCC([C@H]3C[C@@H]3COCc3ccc(CC(=O)N4CCC4)cc3F)CC2)CC1 has EC50 strictly beneath 6 nM.
Output: criterion not met

Input: Dear reviewer, please state whether O=C1NCCN1c1ccc(OCC[C@H]2C[C@@H]2C2CCN(c3ncc(Cl)cn3)CC2)cc1F has EC50 strictly beneath 6 nM.
Output: criterion not met
